pKi: −log10 of the molar value.
pKi tested on UniProtKB P35439: recorded values

Previously resolved entries follow.
# MOLECULE, pKi
records = [
    ("N[C@H](C(=O)O)[C@H]1C[C@H]1C(=O)O [L-CCG-IV]", 8.10),
    ("N[C@H](C(=O)O)[C@H](O)C(=O)O (racemic) [DL-THA]", "< 5.00"),
    ("O=C(O)[C@H]1CN[C@H](C(=O)O)C1 [t-PDC]", "< 5.00"),
    ("CC(C)[C@H]1CN[C@H](C(=O)O)[C@H]1CC(=O)O [dihydrokainic acid]", "< 5.00"),
    ("N[C@H](C(=O)O)[C@H](OCc1ccccc1)C(=O)O [DL-TBOA]", "< 5.00"),
]

Next molecule, pKi to be filled in.
Param item = N[C@H](C(=O)O)[C@H](OC(=O)c1ccccc1)C(=O)O (racemic) [DL-TBzOAsp] ; retrieve measured pKi. < 5.00
